Tested on: NCI/ADR-RES ovarian
Experiment description: NCI-60 one-dose screen, 48 h
Settings: 10 µM unless noted
About 83,000 compounds went through this panel and 20% of them were active in at least one assay; those are over-represented in the sample as a whole. Calls of active or inactive are those of the source. The calls were made as follows: active = growth percent below 10; inactive = the rest.
# valid calls are active, inactive; nothing else

// param item: `Cc1nc(C)c(C)nc1C` ; yields the recorded call
inactive

Per the records of this test, what outcome belongs to `COc1ccc(Sc2[nH]c(C(C)=O)c3ccccc23)cc1` ?
inactive

Check the results log: what was the call for `Cn1cc(-c2ccc3c(c2)ncn3-c2ccc(CC(=O)Nc3cc(C(C)(C)C)on3)cc2)cn1` ?
inactive

Recorded test outcome, item `COC(=O)c1ccc2c(c1)NC(=O)[C@@H]1CCCN21`
inactive

Fill in: this test's call for `CC1CCN(CCCCCOc2ccc3oc4cc(Cl)ccc4c(=O)c3c2)CC1` is ___
inactive

Test call, this compound: `CC(=O)c1ccc(NC(=O)CSc2nnc(-c3cc(-c4ccc(C)cc4)nc4ccccc34)o2)cc1`
inactive

I would be grateful if you could indicate the recorded call for `COc1cc([C@H](C)c2ccc3ccccc3c2)cc(OC)c1OC` .
inactive

I would be grateful if you could indicate the recorded call for `CS(=O)(=O)O[C@@H]1C(=O)N(c2cc3c4ccccc4ccc3c3ccccc23)[C@H]1c1ccc(F)cn1` .
inactive

Just curious, what result did `C#C[C@@]1(O)[C@@H](CO)O[C@@H](n2cc(Cl)c3c(N)ccnc32)[C@@H]1O` get here?
inactive

Fill in: this test's call for `C=C(C)[C@@H]1CC[C@]2(C(=O)N=C=S)CC[C@]3(C)[C@H](CC[C@@H]4[C@@]5(C)CCC(=O)C(C)(C)[C@@H]5CC[C@]43C)[C@@H]12` is ___
inactive

Which result was noted for this compound in the test: `C=C(C)[C@@H]1CC[C@]2(C(=O)OCCOCCOCC[P+](c3ccccc3)(c3ccccc3)c3ccccc3)CC[C@]3(C)[C@H](CC[C@@H]4[C@@]5(C)CC[C@H](C)C(C)(C)[C@@H]5CC[C@]43C)[C@@H]12`
active

Record request — test call for Cc1nc2sc(C(=O)Nc3ccccc3)c(N)c2cc1C(C)O (centres undefined)
inactive

For COc1c(O)cc2oc3cc(O[C@@H]4OC(C)[C@@H](O)[C@H](O)C4O)c(CC=C(C)C)c(O)c3c(=O)c2c1CC=C(C)C (some centres undefined) , which call appears in the assay record?
inactive

State the result this test recorded for `Cc1cc(Nc2nc(SCc3ccc(C(=O)Nc4ccc(F)cc4N)cc3)nn3cccc23)n[nH]1` .
inactive

Each compound tested received a call. Report the one for `Nc1c(C(=O)Nc2cccc3ccccc23)sc2nc3c(cc12)CCCCCC3` .
inactive

Short answer needed: outcome of this test for `N#CC(C#N)=C1NC(c2ccccc2)=C(c2ccccc2)C(c2ccccc2Cl)=C1C#N` ?
inactive

What was the test verdict on `Cc1cc(C)c(NC(=O)c2sc3nc4c(cc3c2N)CCCCCC4)c(C)c1` ?
inactive

What did the test return for `N#Cc1c(NC(=O)c2cccs2)[n+]([O-])c2cc(C(F)(F)F)ccc2[n+]1[O-]` ?
inactive

Called result for `O=C(CCl)N1CCCc2ccccc21`
inactive
